These data points were gathered from paper PMC11747885.

MEASURED_TARGET: Rlig1-AMP (Homo sapiens, UniProt Q8N999)
Construct: made in house; host or cells: E. coli BL21 (DE3), pET15b-Rlig1
Sequence (Q8N999 whole entry): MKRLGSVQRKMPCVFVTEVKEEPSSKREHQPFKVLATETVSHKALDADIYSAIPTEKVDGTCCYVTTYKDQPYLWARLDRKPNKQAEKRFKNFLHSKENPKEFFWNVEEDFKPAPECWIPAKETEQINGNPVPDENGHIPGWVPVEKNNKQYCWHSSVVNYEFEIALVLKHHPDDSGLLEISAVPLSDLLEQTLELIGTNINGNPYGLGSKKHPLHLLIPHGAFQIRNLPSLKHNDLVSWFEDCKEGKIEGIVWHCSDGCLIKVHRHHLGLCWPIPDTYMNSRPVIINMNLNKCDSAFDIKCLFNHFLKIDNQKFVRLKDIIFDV
TEST_METHOD_NOTES: FRET-based high-throughput screening of inhibitors for Rlig1-AMP
Format: biochemical
CONDITION_DETAILS: sheet HTS hits; with enzyme
# maps each entry to its Raw data [w Enyzm]
Just the number, please, no unit attached.

>  <COMPOUND>
Cc1ccc(Cn2cc(CNC3=C(Cl)C(=O)c4cccnc4C3=O)nn2)cc1 [M2N12]

>  <QUANTITATIVE_RESULT>
6859

$$$$

*Q* For the compound C/C(=N\N=C(N)N)c1cc(NC(=O)CCCCCCCCC(=O)Nc2cc(/C(C)=N/N=C(N)N)cc(/C(C)=N/N=C(N)N)c2)cc(/C(C)=N/N=C(N)N)c1.Cl.Cl.Cl.Cl [Semapimod (tetrahydrochloride)] , report Raw data [w Enyzm].
*A* 4067

*Q* For the compound COc1cccc2c1C(=N)c1c(O)c3c(c(O)c1C2=O)C[C@@](O)(C(C)=O)C[C@@H]3O[C@H]1C[C@H](N)[C@H](O)[C@H](C)O1.Cl [5-Iminodaunorubicin (hydrochloride)] , report Raw data [w Enyzm].
*A* 2925
